# System: SK-OV-3 ovarian
# protocolDescription: NCI tumour cell line growth inhibition, 48 h
readoutName: TGI

CCc1c2c([nH]c(=S)c1C#N)CCC2 | > 100 µM
CN(CCCn1c2c(c3ccccc3c1=O)C(=O)c1ccccc1-2)CCCn1c2c(c3ccccc3c1=O)C(=O)c1ccccc1-2 | 19.7 µM
CCC1C2Cc3ccc(O)cc3C1(CC)CCN2C (stereo unspecified) | > 100 µM
CN(C)CCCSc1nc2ccccc2[nH]1 | > 100 µM
COC(=O)C1(C)CCC(c2ccc(C)cc2)=C(CC(=O)O)C1 (stereo unspecified) | > 100 µM
CNc1ncnc2c1ncn2C1C=CC(COS(N)(=O)=O)C1 (stereo unspecified) | > 100 µM

* * *

# Test system: MDA-MB-435
# protocolDescription: NCI tumour cell line growth inhibition, 48 h
readoutName: TGI (µM)

Cc1csc2[n+]1C(=O)/C(=C\c1ccc([N+](=O)[O-])cc1)S2 | 59.9
O=C(ON=C1c2ccccc2C(Br)C(Br)c2ccccc21)c1cc([N+](=O)[O-])cc([N+](=O)[O-])c1 (stereo not drawn) | 35.3
CN(CCCCCl)P(=O)(OCc1ccc([N+](=O)[O-])o1)OC[C@H]1O[C@@H](n2cc(F)c(=O)[nH]c2=O)C[C@@H]1O (stereo partly drawn) | 39
COc1cc(OC(=O)c2ccccc2)cc2c1C(=O)C=CC2=O | 12
Cc1cc(O)c(C(C)C)cc1S(=O)(=O)O (tested in a mixture with another compound) | 0.464
COc1cc(C(=O)O[C@H](C(=O)NCCCCCNC(=O)[C@@H](OC(=O)c2cc(OC)cc3c(C)cccc23)[C@]2(C)CO2)[C@]2(C)CO2)c2cccc(C)c2c1 | 0.0913
C[C@H]1[C@H](C)CC[C@]2(CO)CC[C@]3(C)C(=CC[C@@H]4[C@@]5(C)CCCNC(C)(C)[C@@H]5CC[C@]43C)[C@H]12 | 3.21
COc1ccc(C2=CC(c3ccc4c(c3)OCO4)c3c(c4ccccc4oc3=O)O2)cc1OC (stereo not drawn) | 9.25

* * *

# Tested on: HCT-116 colon
# protocolDescription: NCI tumour cell line growth inhibition, 48 h
readoutName: TGI

O=[N+]([O-])O.[Cu+2].[NH-]CC[NH-].[NH-]CC[NH-] | > 10 µM
Nc1ncnc2nc[nH]c12 | > 250 µM
CC(CCN)(CCN)[N+](=O)[O-] | > 100 µM
O=C(ON=C1c2ccccc2C(Br)C(Br)c2ccccc21)c1cc([N+](=O)[O-])cc([N+](=O)[O-])c1 (stereo not given) | 32.5 µM
COc1cc2c(oc(=O)c3c4oc([Si](C)(C)C)cc4cc(OC)c23)c2cccc(OCc3ccccc3)c12 | > 100 µM
CCCCOC(=O)C1C2CCC(O2)C1C(=O)OCCCC (stereo not given) | > 65.1 µM
C=Cc1ccc(C)[n+](C[Si](C)(C)O[Si](C)(C)C)c1 | > 100 µM
Cc1ccc2nc(NC(=O)C(=O)C(C#N)c3nc4ccccc4s3)sc2c1 (stereo not given) | > 100 µM
O=C(O)C(SC(=S)c1ccc(C(=S)SC(C(=O)O)c2ccccc2)cc1)c1ccccc1 (stereo not given) | > 100 µM
COc1ccc(-c2cn(-c3cc(OC)c(OC)c(OC)c3)c(SCc3ccccc3)n2)cc1OC | > 100 µM

* * *

# Test system: NCI-H460 lung
# protocolDescription: NCI tumour cell line growth inhibition, 48 h
readoutName: TGI

COc1ccc2c(c1)c(=O)oc1cc(OC/C(C)=N\O)ccc12 | > 100 µM
Cc1cc(=O)n(-c2ccccc2C)c(C)n1 | > 100 µM
C=C(C)C1=CCC[C@]2(C1)N=C(OC)[C@@H](C(C)C)N=C2OC | > 100 µM
CC(C)[C@H](N)C(=O)N1CCC[C@H]1B(O)O | > 100 µM
c1ccc2[nH]c(-c3ccc(-c4nccc5c4[nH]c4ccccc45)cc3)nc2c1 | 9.79 µM
C(#Cc1ccccc1C#Cc1cccs1)c1cccs1 | > 100 µM
O=C(ON=C1c2ccccc2C(Br)C(Br)c2ccccc21)c1cc([N+](=O)[O-])cc([N+](=O)[O-])c1 (stereo unspecified) | 38.2 µM
COC1(OC)c2no[n+]([O-])c2CCC1O (stereo unspecified) | > 100 µM
C[C@]12CCC(=O)C=C1CC[C@@H]1[C@@H]2CC[C@]2(C)C(=O)NC(=O)C[C@@H]12 | > 100 µM
C1=NCCN2CCN(CCN=Cc3ccc(cc3)OCc3cccc(n3)COc3ccc1cc3)CC2 | > 50 µM
CC(C)C1CC[C@@H](C)C[C@@]1(O)CC(N)=O (stereo partly specified) | > 100 µM
CCOc1cc(NC(C)=O)ccc1C(=O)NN1C(=O)C(Cl)C1c1ccccc1 (stereo unspecified) | 33.6 µM
Cc1ccc(S(=O)(=O)N/N=C/c2c(O)ccc3ccccc23)cc1 | > 100 µM
COc1ccc(-c2c[nH]c(C(=O)O)c2-c2cc(OC)c(OC)c(OC)c2)cc1 | > 100 µM
Clc1ccc(C2SCc3nc4ccccc4n32)c(Cl)c1 (stereo unspecified) | 34.7 µM
CCCCCCCCCCCCCCCCCCOc1ccccc1CC(=O)OCC[N+]1(C)CCCCC1 | 5.43 µM
Cc1csc2c(=O)n(C3OC(CO)C(O)C3O)c(=O)[nH]c12 (stereo unspecified) | > 100 µM
C=CCN1C(=O)/C(=C/c2ccco2)N=C1SC/C=C/C | > 100 µM
C=C1C(=O)O[C@H]2[C@H]1CC/C(COC(=O)NCc1cn(C)c3ccccc13)=C\CC[C@@]1(C)O[C@@H]21 | 10.1 µM
O=c1[nH]c2cc([N+](=O)[O-])ccc2nc1/C(=N/Nc1ccccc1)C(O)c1ccccc1Cl (stereo unspecified) | > 100 µM
O=C(O)c1cc([N+](=O)[O-])cc2c(=O)c3cnccc3[nH]c12 | > 100 µM

* * *

# System: OVCAR-3 ovarian
# protocolDescription: NCI tumour cell line growth inhibition, 48 h
Some compounds, each annotated with its measured TGI.
readoutName: TGI (µM)

Fc1ccc2c(c1)C1=NN(c3ccccc3)C(F)C1CO2 (stereo not given) | 19.1
O=C1/C(=C/c2cccc(Br)c2)CCc2ccccc21 | 28.6
O=C1/C(=C\c2ccc(O)cc2)CCC/C1=C/c1ccc(Cl)c(Cl)c1 | 9.73
COc1ccc2[nH]cc(CCNC(=O)[C@H](Cc3ccccc3)NC(=O)[C@@H](NCC(F)(F)F)C(C)C)c2c1 | 31.1

* * *

# System: RPMI-8226 leukemia
# protocolDescription: NCI tumour cell line growth inhibition, 48 h
readoutName: TGI (µM)

CCC[CH2][Sn]1([CH2]CCC)[O]C(=O)c2cccnc2[O]1 | 6.34
COCCOC(=O)c1c(C)n([O-])c2cc(Cl)c(Cl)cc2[n+]1=O | 18.8
O=C(ON=C1c2ccccc2C(Br)C(Br)c2ccccc21)c1cc([N+](=O)[O-])cc([N+](=O)[O-])c1 (stereo not given) | 37
C#Cc1c(F)ccc2cc(O)cc(-c3ncc4c(N5CC6CCC(C5)N6)nc(OC[C@@]56CCCN5C[C@H](F)C6)nc4c3F)c12 | 29.9

* * *

Some molecules, each annotated with its measured TGI.
# System: A549 NSCLC
# protocolDescription: NCI tumour cell line growth inhibition, 48 h
readoutName: TGI

CC(C)(C)c1ccc(Oc2nccc(-c3c(-c4ccc(F)cc4)ncn3C3CCNCC3)n2)cc1 | 6.9 µM
CC1=NN(C(=O)c2ccccc2O)C(=O)/C1=C/c1ccco1 | > 100 µM
COc1cc2c(c(OC)c1OC)-c1ccc(SC)c(=O)cc1C(CO)C2 (stereo not drawn) | > 100 µM
CCCCCCCCCCCCCCCCCCNc1ccn(C2OC(COP(=O)(O)OCC3OC(n4cc(F)c(=O)[nH]c4=O)CC3O)C(O)C2O)c(=O)n1 (stereo not drawn) | > 100 µM
CN1CCOC(c2ccc(Cl)cc2)O1 (stereo not drawn) | > 100 µM
C1=NCCN2CCN(CCN=Cc3ccc(cc3)OCc3cccc(n3)COc3ccc1cc3)CC2 | > 50 µM
C=CCNC(=O)NC(=O)CSC1=NNC2(C(=O)N1)c1ccccc1-c1ccccc12 | > 10 µM
CCOC(=O)N1CCN(C=S)CC1 | > 100 µM
CCc1c2c([nH]c(=S)c1C#N)CCC2 | > 100 µM
Nc1ccnc(=O)[nH]1 | > 100 µM
NN(CC(=O)O)CC(=O)O | > 100 µM
CNc1ccc(C(=O)CC(O)CCC(C)C2OC(=O)CC(O)CC(=O)CC(O)CC(O)CC(O)CC(O)CC3(O)CC(O)C(C(=O)N4CCOCC4)C(CC(OC4OC(C)C(O)C(N)C4O)/C=C/C=C/C=C/C=C\C=C/C=C/C=C/C2C)O3)cc1 (stereo not drawn) | > 100 µM
CCOc1ccc2c(c1)[n+]([O-])c(-c1ccc(Cl)cc1)c(N)[n+]2[O-] | > 100 µM
CN[C@@H](C)C(=O)N[C@H](C(=O)N1CCC[C@H]1C(=O)Nc1snnc1-c1ccccc1)C1CCCCC1 | > 100 µM
C=CCN1C(=O)/C(=C/c2ccco2)N=C1SC/C=C/C | > 100 µM
c1ccc2c(c1)cc(C1NCCc3[nH]cnc31)c1ccccc12 (stereo not drawn) | > 100 µM
COc1ccc(-c2nc(-c3nc4ccc(OC)cc4[nH]3)c3ccccn23)cc1 | 46.7 µM
N#CC(NC12CC3CC(CC(C3)C1)C2)c1ccc2c(c1)OCO2 (stereo not drawn) | > 100 µM
O=C([CH-]C(=O)c1ccccc1)c1ccccc1.O=C([CH-]C(=O)c1ccccc1)c1ccccc1.[La+3].[OH-].[OH3+] | 55.2 µM
COc1ccc2c(c1)c(=O)oc1cc(OC/C(C)=N\O)ccc12 | > 100 µM
CC/C=C1/C(=O)C=C[C@@H]1C/C=C\CCCC(=O)OC | 29.5 µM
COC(=O)/C(C)=C(/CCC1(C)OCCO1)O[Si](C)(C)C | > 100 µM
Cc1csc2[n+]1C(=O)/C(=C\c1ccc([N+](=O)[O-])cc1)S2 | > 100 µM
O=C1CCC2C(O)c3cc4c(cc3C(c3ccc5c(c3)OCO5)N12)OCO4 (stereo not drawn) | > 100 µM
C=CCN1C(=O)C=C(c2ccccc2)n2ncc3cccc1c32 | > 100 µM
COc1c(C)c2c(c(O)c1C/C=C(\C)CCC(=O)O)C(=O)OC2 | > 100 µM
C=Cc1ccc(C)[n+](C[Si](C)(C)O[Si](C)(C)C)c1 | > 100 µM
COC1CC(OS(=O)(=O)c2ccc([N+](=O)[O-])cc2)C(OC(=O)c2ccccc2)C(C)O1 (stereo not drawn) | > 100 µM
Nc1ncnn2c(C3OC(CO)C(O)C3O)ccc12 (stereo not drawn) | 3.14 µM
[N-]=[N+]=Nc1ccccc1C(=O)N1C(=O)c2ccccc2C(=O)N(C(=O)c2ccccc2N=[N+]=[N-])c2ccccc21 | > 100 µM
COc1cc(/C=C2/C(=O)N(C(=O)OCC(C)C)C(Cc3cc(OC)c(OC)c(C)c3OC)C(=O)N2Cc2ccccc2)c(OC)c(C)c1OC (stereo not drawn) | > 100 µM
CCOC(=O)c1cccn1S(=O)(=O)c1cc(Cl)ccc1NC(=O)CC | > 100 µM
C=CCNC1=C2C[C@@H](C)C[C@@H](OC)[C@H](OC(=O)CCN)[C@H](C)/C=C(\C)[C@@H](OC(N)=O)[C@H](OC)/C=C\C=C(/C)C(=O)NC(=CC1=O)C2=O | 18.5 µM
C=C1C(=O)O[C@H]2[C@H]1CC/C(COC(=O)NCc1ccc(Cn3c(=O)sn(CCCl)c3=O)cc1)=C\CC[C@@]1(C)O[C@@H]21 | 29.1 µM
COc1ccc(C2=CC(c3ccc4c(c3)OCO4)c3c(c4ccccc4oc3=O)O2)cc1OC (stereo not drawn) | > 100 µM
O=c1[nH]c2cc([N+](=O)[O-])ccc2nc1/C(=N/Nc1ccccc1)C(O)c1ccccc1Cl (stereo not drawn) | > 100 µM
CC(=O)OCC1OC(n2cnc(C(N)=S)c2N)C(OC(C)=O)C1OC(C)=O (stereo not drawn) | > 100 µM
COc1ccc(-c2c(C#N)c(N)n(C3OCC(OC(C)=O)C(OC(C)=O)C3OC(C)=O)c(=S)c2C#N)cc1 (stereo not drawn) | > 100 µM
